# log10 of EC50 values compiled below
Target: human RORγ (Homo sapiens)
Construct: from Ser253 to Lys518 for human RORγ; expressed in transfected cells; host or cells: CHO cells (transient co-transfection with pG5-Luc)
Sequence (P51449 253-518): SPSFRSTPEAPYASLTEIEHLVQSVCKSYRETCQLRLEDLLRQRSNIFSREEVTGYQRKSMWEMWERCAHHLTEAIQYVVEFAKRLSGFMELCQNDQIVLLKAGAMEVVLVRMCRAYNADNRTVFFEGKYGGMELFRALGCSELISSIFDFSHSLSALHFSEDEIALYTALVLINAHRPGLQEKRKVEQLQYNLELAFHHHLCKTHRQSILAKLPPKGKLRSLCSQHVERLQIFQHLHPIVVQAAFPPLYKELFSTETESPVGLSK
Assay: In-vitro reporter gene assay for inhibitory activity against RORγ transcription, Test Method B (pFA/hRORγ LBD / pG5-Luc in CHO cells)
Format: cell-based
Conditions: luciferase reporter, CHO cells, 2 days
Description: In-Vitro Assay for Inhibitory Activity Against RORγ Transcription Inhibitory activity against RORγ transcription was assessed for test compounds by either of the following Test Method A or B of reporter gene assay. […] RORγ transcriptional activity was detected as the intracellular luciferase activity using SteadyLite HTS Reporter Gene Assay System (Perkin Elmer). […] After the incubation at room temperature for 10 minutes, luminescence of each well was measured with a microplate reader. […]
Heads up: the numbers are on a log10 scale; they represent EC50 in µM.

Worked cases, log10 of EC50 given:
# Compound, Endpoint, Reading
records = [
    ("O=C(O)CCN1C=C2CCCCC2(c2ccc(OC3CCCCC3)c(Cl)c2)NC1=O (racemic)", "log10 of EC50", 0.37),
    ("CC(C)C1CC[C@]2(c3ccc(CCC(C)(C)C)c(Cl)c3)NC(=O)N([C@H]3CC[C@@H](C(=O)O)C3)C=C2C1 (single isomer, unassigned)", "log10 of EC50", 0.72),
    ("C[C@H]1CCC2(c3ccc(CCC(C)(C)C)c(Cl)c3)NC(=O)N(C34CC(C(=O)O)(C3)C4)C=C2[C@@H]1C (single isomer, unassigned)", "log10 of EC50", -1.57),
    ("CC1C2=CN(C34CC(C(=O)O)(C3)C4)C(=O)N[C@@]2(c2ccc(CCC(C)(C)C)c(Cl)c2)COC1(C)C (single isomer, unassigned)", "log10 of EC50", 0.67),
    ("CCC1CC[C@@]2(c3ccc(CCC(C)(C)C)c(Cl)c3)NC(=O)N(C34CC(C(=O)O)(C3)C4)C=C2C1 (single isomer, unassigned)", "log10 of EC50", -1.34),
]

Now for a further compound.
Inquiry: Form field - read-out: log10 of EC50; system: human RORγ (Homo sapiens); submitted item: CC1CC[C@]2(c3ccc(CCC(C)(C)C)c(Cl)c3)NC(=O)N(C34CC(C(=O)O)(C3)C4)C=C2C1 (single isomer, unassigned) [Example 89]
Reply text: 0.57

----------
Target: mouse RORγ (Mus musculus, UniProt P51450)
Construct: from Ile251 to Lys516 for mouse RORγ; expressed in transfected cells; host or cells: CHO cells (transient co-transfection with pG5-Luc)
Sequence (P51450 251-516): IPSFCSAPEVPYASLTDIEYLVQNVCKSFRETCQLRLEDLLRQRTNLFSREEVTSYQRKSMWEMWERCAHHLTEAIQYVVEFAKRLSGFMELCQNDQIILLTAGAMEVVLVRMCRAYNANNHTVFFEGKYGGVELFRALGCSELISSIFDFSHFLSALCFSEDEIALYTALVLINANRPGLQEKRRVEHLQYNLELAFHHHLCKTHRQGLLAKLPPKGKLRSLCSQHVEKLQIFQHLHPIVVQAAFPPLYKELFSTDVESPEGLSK
Test: In-vitro reporter gene assay for inhibitory activity against RORγ transcription, Test Method B (pFA/mRORγ LBD / pG5-Luc in CHO cells)
Assay type: cell-based
Details: luciferase reporter, CHO cells, 2 days
Labelling field: enter criterion met if recorded EC50 is less than 1 µM. Enter criterion not met if it equals or exceeds that cut-off.

Solved cases (3 shown):
# Compound, Class
rows = [
    ("C[C@H]1CCC2(c3ccc(C4C(C(C)(C)C)C4(F)F)c(Cl)c3)NC(=O)N(C34CCC(C(=O)O)(C3)C4)C=C2[C@@H]1C (single isomer, unassigned) [Example 115]", "criterion met"),
    ("CCCCOc1ccc(C23CCCCC2=CN(CCC(=O)O)C(=O)N3)cc1Cl (racemic)", "criterion not met"),
    ("O=C(O)CCN1C=C2CCCCC2(c2ccc(OC3CCCCC3)c(Cl)c2)NC1=O (racemic)", "criterion met"),
]

Inquiry: API: query returns whether the compound falls strictly under 1 µM in EC50. Query: CC1CC[C@]2(c3ccc(CCC(C)(C)C)c(Cl)c3)NC(=O)N(C34CCC(C(=O)O)(C3)C4)C=C2C1 (single isomer, unassigned)
Reply text: criterion not met

Inquiry: Regarding CC1C2=CN(C34CC(C(=O)O)(C3)C4)C(=O)N[C@@]2(c2ccc(CCC(C)(C)C)c(Cl)c2)CCC1(C)C (single isomer, unassigned) , kindly confirm whether its EC50 is beneath 1 µM.
Reply text: criterion not met

Inquiry: Hello, is EC50 of the following compound strictly smaller than 1 µM? CC1CC[C@]2(c3ccc(CCC(C)(C)C)c(Cl)c3)NC(=O)N(C34CC(C(=O)O)(C3)C4)C=C2C1 (single isomer, unassigned) [Example 89]
Reply text: criterion not met

----------
Measured EC50 values are reported for all entries that follow.
Target: mouse RORγ (Mus musculus, UniProt P51450)
Construct: from Ile251 to Lys516 for mouse RORγ; expressed in transfected cells; host or cells: CHO cells (transient co-transfection with pG5-Luc)
Sequence (P51450 251-516): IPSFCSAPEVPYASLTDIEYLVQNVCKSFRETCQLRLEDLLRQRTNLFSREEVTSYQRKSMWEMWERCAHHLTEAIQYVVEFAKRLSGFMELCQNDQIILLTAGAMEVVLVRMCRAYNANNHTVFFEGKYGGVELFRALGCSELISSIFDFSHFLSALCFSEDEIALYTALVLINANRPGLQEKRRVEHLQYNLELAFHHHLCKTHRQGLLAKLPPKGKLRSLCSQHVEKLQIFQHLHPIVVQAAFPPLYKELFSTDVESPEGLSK
Assay: In-vitro reporter gene assay for inhibitory activity against RORγ transcription, Test Method B (pFA/mRORγ LBD / pG5-Luc in CHO cells)
Assay type: cell-based
Details: luciferase reporter, CHO cells, 2 days
# output: bare number, implied unit µM

Use these answered entries as a reference point.
# Molecule, EC50 (µM)
records = [
    ("CCC1CC[C@]2(c3ccc(CCC(C)(C)C)c(Cl)c3)NC(=O)N(C34CC(C(=O)O)(C3)C4)C=C2C1 (single isomer, unassigned)", 4.23),
    ("CC(C)(C)CCc1ccc([C@]23CCC(F)(F)CC2=CN(C24CC(C(=O)O)(C2)C4)C(=O)N3)cc1Cl (single isomer, unassigned)", 4.37),
    ("C[C@H]1CCC2(c3ccc(C4C(C(C)(C)C)C4(F)F)c(Cl)c3)NC(=O)N(C34CC(C(=O)O)(C3)C4)C=C2[C@@H]1C (single isomer, unassigned) [Example 114]", 0.05),
]

Inquiry: Entry CC1C2=CN(C34CCC(C(=O)O)(C3)C4)C(=O)N[C@]2(c2ccc(CCC(C)(C)C)c(Cl)c2)COC1(C)C (single isomer, unassigned) [Example 120] , system mouse RORγ (Mus musculus, UniProt P51450): what EC50 was measured?
Reply text: 0.02

Inquiry: Param readout= EC50; system= mouse RORγ (Mus musculus, UniProt P51450); entry= CC(C)C1CC[C@@]2(c3ccc(CCC(C)(C)C)c(Cl)c3)NC(=O)N(C34CC(C(=O)O)(C3)C4)C=C2C1 (single isomer, unassigned) ; returns value.
Reply text: 0.146

----------
Readings of EC50 for the listed compounds
target: mouse RORγ (Mus musculus, UniProt P51450); construct: from Ile251 to Lys516 for mouse RORγ; expressed in transfected cells; host or cells: CHO cells (transient co-transfection with pG5-Luc); assay: In-vitro reporter gene assay for inhibitory activity against RORγ transcription, Test Method A (GAL4-mRORγ LBD / pG5-Luc in CHO cells); type: cell-based; conditions: luciferase reporter, 2 days
Respond with a number, then the unit of measure.

Inquiry: Using the record for CC(C)(C)CCc1ccc([C@@]23CCCC(C)(C)C2=CN(CCC(=O)O)C(=O)N3)cc1Cl (single isomer, unassigned) [Example 38] , report its EC50.
Reply text: 0.021 µM

Inquiry: What value of measured EC50 is listed for COC1CC[C@]2(c3ccc(CCC(C)(C)C)c(Cl)c3)NC(=O)N(CCC(=O)O)C=C2C1 (single isomer, unassigned) [Example 67] ?
Reply text: 8.34 µM

Inquiry: Request the reported EC50 associated with CC(C)(C)COc1ccc(C23CCCC2=NNC(=O)N3)cc1Cl (racemic) [Example 1]
Reply text: 0.536 µM
